system: MDA-MB-468 breast; experiment: NCI-60 one-dose screen, 48 h (100 = growth as untreated, 0 = no growth, -100 = all killed); conditions: 10 µM unless noted
Compounds without any hit were thinned out: in the full panel of roughly 83,000, 20% have a hit.
growth below 60% gives Not satisfied; growth at or above it gives Satisfied.

A selection of reference data follows.
| Compound | Label value |
| --- | --- |
| Cc1ccc(S(=O)(=O)Nc2sccc2-c2nc(-c3ccccc3)no2)cc1 | Satisfied |
| CC(C)=CCc1cc(O)cc2c1OC(C=C(C)C)C1=C2C(=O)C2=C(NCCS2(=O)=O)C1=O (stereo not drawn) | Not satisfied |

Quick check: does Oc1c(Cl)cc(Cl)c2ccc(CN3CCNCC3)nc12 have growth greater than or equal to 60%?
Not satisfied

Quick check: does O=C(NOC(=O)c1ccccc1)c1ccccc1 have growth greater than or equal to 60%?
Satisfied

Quick check: does COc1ccc(C2CCCCC2=O)cc1 (stereo not drawn) have growth greater than or equal to 60%?
Satisfied

Quick check: does C#C[C@@]1(O)[C@@H](CO)O[C@@H](n2cc(C(F)(F)F)c3c(N)ncnc32)[C@@H]1O have growth greater than or equal to 60%?
Not satisfied

Quick check: does Cc1ccc(-c2nc(/C=C3/C(=O)Nc4ccccc43)c3ccccn23)cc1 have growth greater than or equal to 60%?
Satisfied

Quick check: does COc1ccc(OC)c(NC=O)c1 have growth greater than or equal to 60%?
Satisfied

Quick check: does Cn1c2c(Cl)c(Cl)ccc2c2c(C#N)c[nH]c(=O)c21 have growth greater than or equal to 60%?
Satisfied

Quick check: does CCCCCCCCCCCCCCCCC(Br)C(=O)O (stereo not drawn) have growth greater than or equal to 60%?
Satisfied

Quick check: does Fc1ccc(CNCCNc2ncnc3c2cnn3-c2ccccc2)cc1 have growth greater than or equal to 60%?
Satisfied

Quick check: does N#Cc1c(N)nc(-c2cc(F)cc(C(F)(F)F)c2)nc1-c1ccccc1F have growth greater than or equal to 60%?
Satisfied

Quick check: does CC[n+]1c(/C=C/C=C2\N(C)c3ccccc3C2(C)C)sc2ccccc21 have growth greater than or equal to 60%?
Not satisfied
